# ASSAYED_SYSTEM: Serine/threonine-protein kinase PLK1 (Homo sapiens, UniProt P53350)
# Sequence (P53350 whole entry): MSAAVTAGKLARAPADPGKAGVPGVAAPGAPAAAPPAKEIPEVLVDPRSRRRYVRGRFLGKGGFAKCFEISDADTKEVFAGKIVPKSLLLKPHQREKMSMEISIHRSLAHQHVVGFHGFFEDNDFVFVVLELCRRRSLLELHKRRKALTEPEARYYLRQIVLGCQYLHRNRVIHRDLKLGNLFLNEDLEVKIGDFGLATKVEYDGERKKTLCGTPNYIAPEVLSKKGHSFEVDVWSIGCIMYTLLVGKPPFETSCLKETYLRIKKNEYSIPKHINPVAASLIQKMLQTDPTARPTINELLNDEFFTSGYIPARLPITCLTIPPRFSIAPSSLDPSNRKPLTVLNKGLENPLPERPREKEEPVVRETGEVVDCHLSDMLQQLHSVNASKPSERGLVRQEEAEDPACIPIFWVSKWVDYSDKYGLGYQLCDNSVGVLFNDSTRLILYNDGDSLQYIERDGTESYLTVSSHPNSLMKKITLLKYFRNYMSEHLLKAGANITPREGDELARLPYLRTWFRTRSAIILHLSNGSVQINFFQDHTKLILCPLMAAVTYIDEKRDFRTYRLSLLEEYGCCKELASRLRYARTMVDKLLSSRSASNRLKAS
# METHOD_DESCRIPTION: Inhibition of GST-tagged recombinant PLK1 (unknown origin) using 5-carboxyfluorescein-KKRNRRLSVA-OH peptide as substrate incubated for 3 hrs in presence of ATP by HTS TR-FRET assay
MEASUREMENT_KIND: IC50 (µM)
Numbers only, in µM.

# input molecule: O=C(O)c1ccc2c(c1)[C@@H]1C=CC[C@@H]1[C@H](c1ccccn1)N2 ; wanted: its IC50
17

----------
# ASSAYED_SYSTEM: Tyrosine-protein phosphatase non-receptor type 1 (Homo sapiens, UniProt P18031)
# Sequence (P18031 whole entry): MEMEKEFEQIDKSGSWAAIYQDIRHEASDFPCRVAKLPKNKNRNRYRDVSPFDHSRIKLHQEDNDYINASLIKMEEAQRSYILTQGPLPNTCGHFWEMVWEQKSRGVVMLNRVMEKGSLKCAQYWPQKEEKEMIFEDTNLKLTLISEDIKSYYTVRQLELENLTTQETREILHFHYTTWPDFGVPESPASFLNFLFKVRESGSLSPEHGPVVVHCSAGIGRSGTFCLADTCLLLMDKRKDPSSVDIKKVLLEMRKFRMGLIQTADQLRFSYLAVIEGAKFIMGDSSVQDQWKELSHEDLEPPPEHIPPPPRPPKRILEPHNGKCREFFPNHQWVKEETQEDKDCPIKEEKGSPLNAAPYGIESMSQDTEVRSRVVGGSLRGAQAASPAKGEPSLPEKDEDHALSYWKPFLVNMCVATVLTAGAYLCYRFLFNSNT
# METHOD_DESCRIPTION: Inhibition of human recombinant PTP1B using OMFP as substrate incubated for 60 mins by fluorescence based analysis
MEASUREMENT_KIND: pIC50
Answers are plain numbers, as −log10 of the molar value.

# input compound: O=C(O)c1ccc2c(c1)C1C=CCC1C(C(=O)O)N2 (stereo unspecified) ; wanted: its pIC50
5.18

----------
# ASSAYED_SYSTEM: SH3 and multiple ankyrin repeat domains protein 3 (Mus musculus, UniProt Q4ACU6)
# Sequence (Q4ACU6 whole entry, the tested form may be a part): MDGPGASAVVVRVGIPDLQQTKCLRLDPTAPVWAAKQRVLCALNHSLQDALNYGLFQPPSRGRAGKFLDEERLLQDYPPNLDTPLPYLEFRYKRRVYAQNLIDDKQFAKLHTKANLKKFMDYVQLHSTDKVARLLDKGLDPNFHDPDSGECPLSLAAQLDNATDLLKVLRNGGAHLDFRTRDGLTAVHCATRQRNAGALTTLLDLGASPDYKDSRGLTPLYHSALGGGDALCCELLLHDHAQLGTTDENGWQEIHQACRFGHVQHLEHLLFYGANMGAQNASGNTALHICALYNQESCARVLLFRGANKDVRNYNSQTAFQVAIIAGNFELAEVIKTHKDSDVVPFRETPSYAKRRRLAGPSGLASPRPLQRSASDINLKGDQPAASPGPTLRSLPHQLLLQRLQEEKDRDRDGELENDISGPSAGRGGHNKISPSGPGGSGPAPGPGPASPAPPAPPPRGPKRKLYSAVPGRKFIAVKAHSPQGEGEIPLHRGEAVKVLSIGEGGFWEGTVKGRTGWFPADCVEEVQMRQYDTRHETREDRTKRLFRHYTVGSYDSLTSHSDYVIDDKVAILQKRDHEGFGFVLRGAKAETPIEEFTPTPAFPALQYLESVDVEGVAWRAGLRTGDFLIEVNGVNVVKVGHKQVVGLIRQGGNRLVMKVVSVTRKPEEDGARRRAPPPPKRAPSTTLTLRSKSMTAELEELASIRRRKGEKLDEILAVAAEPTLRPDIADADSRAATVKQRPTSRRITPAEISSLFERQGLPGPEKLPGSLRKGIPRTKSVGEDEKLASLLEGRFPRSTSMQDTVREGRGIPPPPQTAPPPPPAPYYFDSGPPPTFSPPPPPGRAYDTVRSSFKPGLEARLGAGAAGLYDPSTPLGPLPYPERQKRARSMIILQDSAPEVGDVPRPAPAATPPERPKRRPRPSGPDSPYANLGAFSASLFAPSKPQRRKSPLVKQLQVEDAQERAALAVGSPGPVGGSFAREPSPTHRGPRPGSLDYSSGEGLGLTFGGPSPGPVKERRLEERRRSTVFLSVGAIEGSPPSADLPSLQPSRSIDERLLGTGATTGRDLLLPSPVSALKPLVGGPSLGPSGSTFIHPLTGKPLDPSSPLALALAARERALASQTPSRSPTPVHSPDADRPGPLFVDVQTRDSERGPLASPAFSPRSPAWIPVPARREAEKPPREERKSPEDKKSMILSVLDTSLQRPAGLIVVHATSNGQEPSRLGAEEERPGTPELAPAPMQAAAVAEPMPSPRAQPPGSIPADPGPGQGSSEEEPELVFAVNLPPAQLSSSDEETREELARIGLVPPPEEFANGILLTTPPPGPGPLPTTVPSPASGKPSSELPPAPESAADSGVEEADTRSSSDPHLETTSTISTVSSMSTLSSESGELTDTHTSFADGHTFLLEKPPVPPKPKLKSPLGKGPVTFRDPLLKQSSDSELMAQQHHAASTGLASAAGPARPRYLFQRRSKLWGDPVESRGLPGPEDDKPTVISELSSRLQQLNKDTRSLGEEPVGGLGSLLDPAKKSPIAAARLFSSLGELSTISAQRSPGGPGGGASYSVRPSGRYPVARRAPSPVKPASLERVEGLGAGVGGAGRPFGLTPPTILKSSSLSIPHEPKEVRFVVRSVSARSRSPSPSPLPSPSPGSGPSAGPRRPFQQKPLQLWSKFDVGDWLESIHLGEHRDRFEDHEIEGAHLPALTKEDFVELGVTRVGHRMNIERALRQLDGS
MEASUREMENT_KIND: Ki (µM)
One number for each entry, in µM.

# input molecule: O=C(O)c1ccc([N+](=O)[O-])c2c1N[C@@H](C(=O)O)[C@H]1CC=C[C@@H]21 ; wanted: its Ki
17
